# reported MIC95; entries follow
- Test system: Pseudomonas aeruginosa
- method_description: Antimicrobial activity against Pseudomonas aeruginosa CICC 21630 clinical isolates after 24 hrs by NCCLS-protocol based assay
- Format: functional
- conditions_used: CICC 21630, 24 h

INPUT: Reported MIC95 for H-LRPLLRPLLRPLLRPLLRPLLRPLLRPL-NH2 : what is it?
OUTPUT: 2 µM

INPUT: Also need H-IRPIIRPIIRPIIRPIIRPI-NH2 , thanks.
OUTPUT: > 64 µM

INPUT: Also need H-IKPIIKPIIKPIIKPIIKPIIKPIIKPI-NH2 , thanks.
OUTPUT: > 64 µM

INPUT: Also need H-LKPLLKPLLKPLLKPLLKPLLKPL-NH2 , thanks.
OUTPUT: 32 µM

INPUT: Also need H-VRPVVRPVVRPVVRPVVRPVVRPV-NH2 , thanks.
OUTPUT: > 64 µM
